target: human recombinant PARG (Homo sapiens (Human), UniProt Q86W56); test: PARG Activity Assay; settings: recombinant human PARG 0.0185 nM, 1 hour pre-incubation, poly (ADP-ribose) substrate-coated plate, Abs 450
Sequence (Q86W56 whole entry): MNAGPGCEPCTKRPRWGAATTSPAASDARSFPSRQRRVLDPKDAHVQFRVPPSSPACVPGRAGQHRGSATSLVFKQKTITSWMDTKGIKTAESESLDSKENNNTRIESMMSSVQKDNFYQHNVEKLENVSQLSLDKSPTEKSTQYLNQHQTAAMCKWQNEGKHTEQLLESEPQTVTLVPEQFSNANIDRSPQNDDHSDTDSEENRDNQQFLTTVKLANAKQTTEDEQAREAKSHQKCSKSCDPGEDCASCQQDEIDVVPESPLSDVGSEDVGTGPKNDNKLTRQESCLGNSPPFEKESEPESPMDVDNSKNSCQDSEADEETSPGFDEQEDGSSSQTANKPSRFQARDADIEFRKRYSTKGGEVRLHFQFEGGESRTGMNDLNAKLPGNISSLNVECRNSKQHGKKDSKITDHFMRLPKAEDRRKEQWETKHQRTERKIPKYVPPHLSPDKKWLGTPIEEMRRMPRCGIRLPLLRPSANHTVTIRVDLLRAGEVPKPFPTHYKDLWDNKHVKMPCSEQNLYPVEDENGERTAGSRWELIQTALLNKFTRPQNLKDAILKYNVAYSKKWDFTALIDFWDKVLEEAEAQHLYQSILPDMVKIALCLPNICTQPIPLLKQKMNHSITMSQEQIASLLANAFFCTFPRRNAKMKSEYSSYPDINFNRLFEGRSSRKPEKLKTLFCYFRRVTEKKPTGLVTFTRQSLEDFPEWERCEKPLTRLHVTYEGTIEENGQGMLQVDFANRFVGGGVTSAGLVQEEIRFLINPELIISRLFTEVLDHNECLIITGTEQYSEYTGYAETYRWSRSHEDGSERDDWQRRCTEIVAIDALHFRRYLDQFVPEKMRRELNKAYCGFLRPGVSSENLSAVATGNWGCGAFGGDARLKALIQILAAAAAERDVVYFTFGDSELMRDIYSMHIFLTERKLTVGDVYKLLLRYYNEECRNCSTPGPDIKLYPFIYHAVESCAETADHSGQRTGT
Simple rule here: IC50 less than 70 nM is TRUE, otherwise FALSE.

>  <smi>
Cn1cc(Cn2c(=O)c3cc(S(=O)(=O)NC4(C)CC4)sc3n(Cc3ccc(Oc4ccc(F)cc4)nc3)c2=O)cn1

>  <cat>
FALSE

$$$$

Enquiry: Is IC50 of Cc1ncc(Cn2c(=O)c3cc(S(=O)(=O)NC(C)C)sc3n(CC3CC3)c2=O)s1 strictly below 70 nM?
Return: FALSE

Enquiry: Is IC50 of Cc1ncc(Cn2c(=O)c3cc(S(=O)(=O)NC4(C)CC4)sc3n(Cc3ccc4c(c3)OCC4)c2=O)s1 strictly below 70 nM?
Return: TRUE

Enquiry: Is IC50 of Cn1cc(Cn2c(=O)c3cc(S(=O)(=O)NC4(C)CC4)sc3n(Cc3ccc(C4CC4)cc3)c2=O)cn1 strictly below 70 nM?
Return: FALSE

Enquiry: Is IC50 of CCC(=O)N1CCC(n2c(=O)n(Cc3cnn(C)c3)c(=O)c3cc(S(=O)(=O)NC4(C)CC4)sc32)CC1 strictly below 70 nM?
Return: FALSE

Enquiry: Is IC50 of Cc1nc(C)c(Cn2c(=O)n(Cc3cnn(C)c3)c(=O)c3cc(S(=O)(=O)NC4(C#N)CC4)sc32)s1 strictly below 70 nM?
Return: TRUE

###

This listing pairs molecules with measured pIC50.
target: human recombinant PARG (Homo sapiens (Human), UniProt Q86W56); test: PARG Activity Assay; conditions: recombinant human PARG 0.0185 nM, 1 hour pre-incubation, poly (ADP-ribose) substrate-coated plate, Abs 450
The meaning of pIC50 here: minus log10 of the concentration in molar units.

>  <molecule>
Cn1cc(Cn2c(=O)c3cc(S(=O)(=O)NC4(C)CC4)sc3n(Cc3ccc(OC4CCC4)cc3)c2=O)cn1 [Ex 69]

>  <pIC50>
6.55

$$$$
>  <molecule>
CN1Cc2ccc(Cn3c(=O)n(Cc4cnn(C)c4)c(=O)c4cc(S(=O)(=O)NC5(C)CC5)sc43)cc2C1 [Ex 67]

>  <pIC50>
7.00

$$$$
>  <molecule>
CNc1ncc(Cn2c(=O)n(Cc3cnn(C)c3)c(=O)c3cc(S(=O)(=O)NC4(C)CC4)sc32)cn1 [Ex 54]

>  <pIC50>
7.31

$$$$
>  <molecule>
Cc1ncc(Cn2c(=O)c3cc(S(=O)(=O)NC4(C)CC4)sc3n(CCOC3CNC3)c2=O)s1 [Ex 7]

>  <pIC50>
6.68

$$$$
>  <molecule>
Cn1cc(Cn2c(=O)c3cc(S(=O)(=O)NC4(C)CC4)sc3n(Cc3cc4c(cn3)COC4)c2=O)cn1 [Ex 41]

>  <pIC50>
7.01

$$$$

Enquiry: Look up pIC50 of Cn1cc(Cn2c(=O)c3cc(S(=O)(=O)NC4(C)CC4)sc3n(Cc3ccc4[nH]ncc4c3)c2=O)cn1 [Ex 38] and report it.
Return: 8.39

Enquiry: Look up pIC50 of Cn1cc(Cn2c(=O)c3cc(S(=O)(=O)NC4(C)CC4)sc3n(Cc3ccc(=O)n(C)c3)c2=O)cn1 [Ex 88] and report it.
Return: 7.64

Enquiry: Look up pIC50 of CN1Cc2cc(Cn3c(=O)n(Cc4cnn(C)c4)c(=O)c4cc(S(=O)(=O)NC5(C)CC5)sc43)ccc2C1=O [Ex 45] and report it.
Return: 7.89

Enquiry: Look up pIC50 of CNc1c(F)cc(Cn2c(=O)n(Cc3cnn(C)c3)c(=O)c3cc(S(=O)(=O)NC4(C)CC4)sc32)cc1F [Ex 125] and report it.
Return: 7.70

Enquiry: Look up pIC50 of Cn1cc(Cn2c(=O)c3cc(S(=O)(=O)NC4(C)CC4)sc3n(CCC3(C)COC3)c2=O)cn1 [Ex 120] and report it.
Return: 6.92

Enquiry: Look up pIC50 of Cn1cc(Cn2c(=O)c3cc(S(=O)(=O)NC4(C)CC4)sc3n(Cc3ccc(F)c(OCCO)c3)c2=O)cn1 [Ex 122] and report it.
Return: 7.77

Enquiry: Look up pIC50 of CCN(C)c1ccc(Cn2c(=O)n(Cc3cnn(C)c3)c(=O)c3cc(S(=O)(=O)NC4(C)CC4)sc32)cc1F [Ex 72] and report it.
Return: 6.72

Enquiry: Look up pIC50 of Cn1cc(Cn2c(=O)c3cc(S(=O)(=O)NC4(C#N)CC4)sc3n(Cc3ccc4oc(CO)cc4c3)c2=O)cn1 [Ex 102] and report it.
Return: 7.12

Enquiry: Look up pIC50 of Cn1cc(Cn2c(=O)c3cc(S(=O)(=O)NC4(C)CC4)sc3n(Cc3ccc4c(c3)CNC4=O)c2=O)cn1 [Ex 60] and report it.
Return: 7.62

Enquiry: Look up pIC50 of Cc1cc(Cn2c(=O)n(Cc3cnn(C)c3)c(=O)c3cc(S(=O)(=O)NC4(C)CC4)sc32)cc2c1COC2 [Ex 114] and report it.
Return: 7.47
